# System: P. falciparum 3D7 growth, pLDH absorbance
# assay remarks: blood-stage malaria parasite growth potency – strain 3D7, dose response (AID 2305)
measured metric: IC50 (nM)

{"columns": ["compound", "readout number"],
 "data": [
  ["COc1cccc2sc(Nc3nc(-c4ccccn4)cs3)nc12", 800],
  ["CCOc1c(OC)ccc2c1CCN(CCN1CCC(NC(=O)c3ccc(-c4cccc(C(F)(F)F)c4C(F)(F)F)cc3)CC1)C2", 730],
  ["C=CCn1c(Sc2ccc(C#N)c([N+](=O)[O-])c2)nnc1-c1ccc(Cl)cc1", 670],
  ["C[C@H](Cc1ccc(OCCCCOc2ccc(C[C@@H](C)NC[C@H](O)c3cccc(Cl)c3)cc2)cc1)NC[C@H](O)c1cccc(Cl)c1", 760],
  ["COc1ccccc1C1CN(CCNC(=O)c2ncc(C)[nH]2)Cc2ccccc2O1 (centres undefined)", 800],
  ["Cc1cccc(C)c1N1CCN(C2CCC(NC(=O)/C=C/c3ccccc3)CC2)CC1 (centres undefined)", 1180],
  ["O=C(C1CC1)N1c2ccccc2CCc2ccccc21", 830],
  ["CC(CCCCC(=O)Nc1ccc(C(F)(F)F)cc1)NCC(O)c1cccc(Cl)c1 (centres undefined)", 280],
  ["CCCNC(=O)C1Cc2c([nH]c3ccc(Br)cc23)C2(CCN(CCc3ccccc3)CC2)N1 (centres undefined)", 680]
]}

---

# Tested on: P. falciparum 3D7 growth, pLDH absorbance
# assay remarks: blood-stage malaria parasite growth potency – strain 3D7, dose response (AID 2305)
Criterion: IC50 strictly under 900 nM. Met: true. Not met: false.

{"columns": ["molecule", "answer label"],
 "data": [
  ["COc1ccc(CCCN2C(=O)C(c3ccccc3)(c3ccccc3)N=C2N)cc1", "false"],
  ["COc1cccc(NC(=O)c2ccc(NCCCN3CCC(C)CC3)c([N+](=O)[O-])c2)c1", "true"],
  ["CO/C(=C\\C=C\\c1cc2cc(Cl)c(Cl)cc2[nH]1)C(=O)NCCCN1CCN(c2cccc(CCO)c2)CC1", "true"],
  ["C=CCN(c1ccc(OC)cc1)S(=O)(=O)c1ccc(Cl)c(C(=O)Nc2cccc(C#N)c2)c1", "true"],
  ["OC(CNC1CCCCC1)Cn1c2ccc(Br)cc2c2cc(Br)ccc21 (stereo not given)", "true"],
  ["CCOc1ccc2c(NN=Cc3cccc(Cl)c3)cc(C)nc2c1", "true"],
  ["Cc1nc(-c2nc(NCCc3c(C)noc3C)ncc2-c2ccsc2)sc1C", "true"],
  ["NC12CC3CC(CC(C3)C1)C2", "true"],
  ["Cc1ccc(NC(=O)N2CCCN(CCCCCNC(=O)/C=C/c3ccc(Cl)c(Cl)c3)CC2)cc1", "true"],
  ["O=C(CCC1CCCCC1=O)c1ccccc1 (stereo not given)", "true"],
  ["Cc1ccc(C(=O)Nc2cccc(-c3ccc(N4CCN(C)CC4)nn3)c2)cc1[N+](=O)[O-]", "true"],
  ["O=C(/C=C/c1ccc(Cl)c(Cl)c1)NCCCCCN1CCC(NC(=O)NC2CCCC2)CC1", "true"],
  ["CCc1cccc(OCC2CCCN(c3ccc(C(=O)NC4CC4)cn3)C2)c1 (stereo not given)", "false"],
  ["Cn1cncc1C(=O)Nc1ccc(-c2cccc(-c3nc4ccc(F)cc4[nH]3)c2)cc1", "true"],
  ["COc1ccc2nccc([C@@H](O)CN3CCC(NCCOc4ccccc4C(F)(F)F)CC3)c2c1", "true"],
  ["O=C(Cc1cn(-c2ccccc2)nc1-c1ccc(Cl)cc1)Nc1nccs1", "false"],
  ["CC(=O)Nc1ccc(CCNC(C)Cc2ccc(C(=O)Nc3ccc(CC(C)NCCc4cccc(Cl)c4)cc3)cc2)cc1 (stereo not given)", "true"],
  ["COc1cc(Cc2cnc(N)nc2N)cc(OCCCCCC(N)=O)c1OC", "false"],
  ["Cc1cc(N[C@@H](CC(C)C)C(=O)NCCOc2ccccc2)nc(Nc2ccccc2)n1", "false"],
  ["Cc1cc(N[C@@H](Cc2ccccc2)C(=O)Nc2ccccc2)nc(NCC2CCCCC2)n1", "true"],
  ["COc1cc(N)c(Cl)cc1C(=O)NC1CCC(NCC2CCCCC2)CC1 (stereo not given)", "true"],
  ["Cc1cnc(C(=O)Nc2cccc(-c3csc(-c4nc5ccccc5[nH]4)c3)c2)cn1", "true"],
  ["Fc1ccc2c(NN=Cc3ccccc3)ccnc2c1", "true"],
  ["CN(C)CCCOc1ccc(CCCCc2ccc(Cl)cc2C(=O)c2ccccc2)cc1", "false"],
  ["Cc1cc(N2CCCC2)nc(Nc2ccc(NC(=O)CC(C)C)cc2)n1", "true"],
  ["COC(=O)c1ccc(CC(C)NCC(O)c2cccc3ccccc23)cc1 (stereo not given)", "false"],
  ["CC(C)Oc1cc2c(cc1NS(=O)(=O)c1ccc(-c3cccs3)cc1)CCN(C)CC2", "false"],
  ["CC(C)(C)c1cc(Cn2ccnc2)cc(C(C)(C)C)c1O", "false"],
  ["Cc1cc(-c2ccc3c(c2)CCN(CCC2CCC(NC(=O)/C=C/c4cccc(F)c4)CC2)CC3)on1 (stereo not given)", "true"],
  ["CCNc1cc(C)nc(Nc2ccc(NC(=O)Cc3ccc(OC)cc3)cc2)n1", "false"],
  ["Cc1cc(N)c2cc(NC(=O)CCC(=O)Nc3ccc4nc(C)cc(N)c4c3)ccc2n1", "false"],
  ["CN1CCN(Cc2ccc(-c3cc4nccc(Nc5ccc(Oc6ccccc6)cc5)c4cc3Cl)o2)CC1", "false"],
  ["CCCCCCCNc1cc(C)nc2ccc(OC)cc12", "true"],
  ["COc1cc(C2C(Oc3ccccc3)C(=O)N2Cc2ccc(F)cc2)cc(OC)c1OC (stereo not given)", "false"],
  ["CO/C(=C\\C=C\\c1cc2cc(Cl)c(Cl)cc2[nH]1)C(=O)NCCCNC12CC3CC(CC(C3)C1)C2", "true"],
  ["Cc1nc(C(=O)N2CCCC[C@H]2CNC(=O)c2ccc(-c3ccc(N4CCCC4=O)cc3C)cc2)c(-c2ccc(F)cc2)s1", "true"]
]}
